# Tested on: 855 line
# Experimental details: WST cytotoxicity assay, 855 line
# Type: cell-based
# Assay conditions: read-out: Cancer cell cytotoxicity IC50
// values below are reported IC50

# Compound, U, IC50
records = [
    ("Cc1ccc(NS(=O)(=O)c2ccc3c(c2)C2OCC[C@H]2[C@H](C2CCCCC2)N3)cc1C (stereo partly shown)", "nM", 800),
    ("O=S(=O)(Nc1ccc2c(c1)CCCC2)c1ccc2c(c1)C1OCC[C@H]1[C@H](C1CCCCC1)N2 (stereo partly shown)", "nM", 2310),
    ("Cc1ccc(NS(=O)(=O)c2ccc3c(c2)C2OCC[C@H]2C2(CCCCC2)N3)cc1C (stereo partly shown)", "nM", 980),
    ("Cc1ccc(NS(=O)(=O)c2ccc3c(c2)C2NCC[C@H]2C(C2CCCCC2)N3)cc1C (stereo partly shown)", "nM", 2430),
    ("CC(=O)c1ccc(C2Nc3ccc(S(=O)(=O)Nc4ccc(C)c(C)c4)cc3[C@H]3OCC[C@@H]23)cc1 (stereo partly shown)", "nM", 490),
    ("Cc1ccc(NS(=O)(=O)c2ccc3c(c2)C2OCC[C@H]2C(c2ccc(C(=O)C(C)C)cc2)N3)cc1C (stereo partly shown)", "nM", 740),
    ("O=S(=O)(Nc1ccc(Cl)c(Cl)c1)c1ccc2c(c1)C1OCC[C@H]1[C@H](C1CCCCC1)N2 (stereo partly shown)", "nM", 1810),
]

---

// values below are reported MTD
# Experimental details: in vivo
# Assay conditions: mouse
Reported property: MTD

# Molecule, Measured result
records = [
    ("Cc1ccc(NS(=O)(=O)c2ccc3c(c2)C2OCC[C@H]2[C@H](C2CCCCC2)N3)cc1C (stereo partly drawn)", "300 mg/kg"),
    ("COC(=O)c1ccc(C2Nc3ccc(S(=O)(=O)Nc4ccc(C)c(C)c4)cc3[C@H]3OCC[C@@H]23)cc1 (stereo partly drawn)", "300 mg/kg"),
    ("Cc1ccc(NS(=O)(=O)c2ccc3c(c2)[C@H]2C=CC[C@H]2[C@H](c2ccc(C(=O)O)cc2)N3)cc1C [MX69, reference compound]", "200 mg/kg"),
]

---

# Test system: EU-1
# Experimental details: WST cytotoxicity assay, cancer cell EU-1
# Assay type: cell-based, human
# Assay conditions: Homo sapiens, EU-1, EU-1; no other cell line named in the cell; read-out: Cancer cell (EU-1) cytotoxicity IC50
pIC50: −log10 of the molar value.
// values below are reported pIC50

# Compound, Target under test, Sign, pIC50
measured = [
    ("Cc1cc(NS(=O)(=O)c2ccc3c(c2)[C@H]2OCC[C@H]2C(c2ccc(C(=O)C(C)C)cc2)N3)ccc1Cl (stereo partly drawn) [Compound 69L77]", "EU-1", "=", 5.20),
    ("Cc1ccc(NS(=O)(=O)c2ccc3c(c2)[C@H]2C=CC[C@H]2[C@H](c2ccc(C(=O)O)cc2)N3)cc1C [MX69, reference compound]", "EU-1", "=", 5.15),
    ("CC(=O)c1cccc(NS(=O)(=O)c2ccc3c(c2)[C@H]2OCC[C@H]2[C@H](C2CCCCC2)N3)c1 [Compound 69L144]", "EU-1", "=", 5.82),
    ("Cc1ccc(NS(=O)(=O)c2ccc3c(c2)[C@H]2c4ccccc4C[C@H]2[C@H](c2ccc(C(=O)O)cc2)N3)cc1C [Compound 69L6]", "EU-1", "=", 4.69),
    ("CC(=O)c1ccc([C@H]2Nc3ccc(S(=O)(=O)Nc4ccc(C)c(C)c4)cc3C3NCC[C@H]32)cc1 (stereo partly drawn) [Compound 69L49]", "EU-1", "=", 5.34),
    ("COC(=O)c1ccc([C@H]2Nc3ccc(S(=O)(=O)Nc4ccc(C)c(C)c4)cc3C3NCC[C@H]32)cc1 (stereo partly drawn) [Compound 69L35]", "EU-1", "=", 5.31),
    ("COC(=O)c1ccc([C@@H]2Nc3ccc(S(=O)(=O)Nc4ccc(C)c(C)c4)cc3[C@H]3c4ccccc4C[C@H]32)cc1 [Compound 69L3]", "EU-1", "=", 4.74),
    ("Cc1ccc(NS(=O)(=O)c2ccc3c(c2)[C@H]2OCC[C@H]2C(c2ccc(C(=O)C4CC4)cc2)N3)cc1C (stereo partly drawn) [Compound 69L67]", "EU-1", "=", 5.29),
    ("Cc1ccc(NS(=O)(=O)c2ccc3c(c2)C2CCC[C@H]2[C@H](c2ccc(C(O)C(C)C)cc2)N3)cc1C (stereo partly drawn) [Compound 69L86]", "EU-1", "=", 5.42),
    ("CCC(=O)c1cccc(NS(=O)(=O)c2ccc3c(c2)C2OCC[C@H]2C(c2ccc(C(=O)C(C)C)cc2)N3)c1 (stereo partly drawn) [Compound 69L125]", "EU-1", "=", 5.83),
    ("Cc1ccc(NS(=O)(=O)c2ccc3c(c2)C(=O)CC(c2cccc(C(=O)N(C)C)c2)N3)cc1C (stereo not drawn) [Compound 69L158]", "EU-1", "=", 6.20),
    ("CC(C)C(=O)c1ccc(C2Nc3ccc(S(=O)(=O)Nc4cccc(C(C)(C)C)c4)cc3[C@H]3OCC[C@@H]23)cc1 (stereo partly drawn) [Compound 69L136]", "EU-1", "=", 5.21),
    ("Cc1ccc(NS(=O)(=O)c2ccc3c(c2)[C@H]2OCC[C@H]2C(c2ccc(C(C)C)cc2)N3)cc1C (stereo partly drawn) [Compound 69L31]", "EU-1", "=", 5.37),
    ("CC(=O)c1cccc(NS(=O)(=O)c2ccc3c(c2)[C@H]2OCC[C@H]2C(c2cccc(C(C)=O)c2)N3)c1 (stereo in doubt) [Compound 69L103]", "EU-1", "=", 6.01),
    ("CC(=O)c1ccc(C2Nc3ccc(S(=O)(=O)Nc4cccc(C(C)=O)c4)cc3[C@H]3OCC[C@@H]23)cc1 (stereo partly drawn) [Compound 69L110]", "EU-1", "=", 6.57),
    ("COc1cccc(NS(=O)(=O)c2ccc3c(c2)C(=O)CC(c2cccc(C(=O)C(C)C)c2)N3)c1 (stereo not drawn) [Compound 69L157]", "EU-1", "=", 6.48),
    ("CC(=O)c1ccc(C2CC(=O)c3cc(S(=O)(=O)Nc4ccc(C)c(C)c4)ccc3N2)cc1 (stereo not drawn) [Compound 69L83]", "EU-1", "=", 5.93),
    ("Cc1cc(NS(=O)(=O)c2ccc3c(c2)[C@H]2OCC[C@H]2C(c2ccc(C(=O)C(C)C)cc2)N3)ccc1F (stereo partly drawn) [Compound 69L79]", "EU-1", "=", 5.54),
    ("CCC(=O)c1cccc(NS(=O)(=O)c2ccc3c(c2)C2OCC[C@H]2C(c2ccc4c(c2)CCO4)N3)c1 (stereo in doubt) [Compound 69L127]", "EU-1", "=", 5.32),
    ("CCO[C@H]1C[C@H](c2ccc(C(=O)OC)cc2)Nc2ccc(S(=O)(=O)Nc3ccc(C)c(C)c3)cc21 [Compound 69L32]", "EU-1", "=", 5.14),
    ("Cc1ccc(NS(=O)(=O)c2ccc3c(c2)[C@H]2OCCC[C@H]2C(c2ccc(C(=O)O)cc2)N3)cc1C (stereo partly drawn) [Compound 69L10]", "EU-1", "<", 4.30),
    ("CC(C)c1cccc(C2CC(=O)c3cc(S(=O)(=O)Nc4ccc5c(c4)CCO5)ccc3N2)c1 (stereo not drawn) [Compound 69L138]", "EU-1", "=", 5.85),
    ("Cc1ccc(NS(=O)(=O)c2ccc3c(c2)[C@H]2C=CC[C@H]2[C@H](c2ccc(S(C)(=O)=O)cc2)N3)cc1C [Compound 69L21]", "EU-1", "=", 5.21),
    ("CCC(=O)c1cccc(NS(=O)(=O)c2ccc3c(c2)C(=O)CC(c2ccc4c(c2)CCO4)N3)c1 (stereo not drawn) [Compound 69L129]", "EU-1", "=", 6.19),
    ("CCC(=O)c1cccc(NS(=O)(=O)c2ccc3c(c2)C(=O)CC(c2cccc(C(C)=O)c2)N3)c1 (stereo not drawn) [Compound 69L126]", "EU-1", "=", 5.94),
    ("CC(=O)c1ccc(NS(=O)(=O)c2ccc3c(c2)[C@H]2OCC[C@H]2C(c2ccc(C(C)=O)cc2)N3)cc1 (stereo partly drawn) [Compound 69L111]", "EU-1", "=", 5.86),
    ("CC(C)C(=O)c1cccc(C2CC(=O)c3cc(S(=O)(=O)Nc4cccc(C(C)C)c4)ccc3N2)c1 (stereo not drawn) [Compound 69L139]", "EU-1", "=", 6.18),
]

---

# Tested on: EU-1
# Experimental details: WST cytotoxicity assay, cancer cell EU-1
# Format: cell-based, human
# Assay conditions: Homo sapiens, EU-1, EU-1; no other cell line named in the cell; read-out: Cancer cell (EU-1) cytotoxicity IC50

# Molecule, Target under test, Sign, IC50 / µM
rows = [
    ("Cc1ccc(NS(=O)(=O)c2ccc3c(c2)[C@H]2OCC[C@H]2C(c2ccc(C(=O)O)cc2)N3)cc1C (some centres unmarked)", "EU-1", ">", 50),
    ("COC(=O)c1ccc([C@@H]2Nc3ccc(S(=O)(=O)Nc4ccc(C)c(C)c4)cc3[C@H]3C=CC[C@H]32)cc1", "EU-1", "=", 4.66),
    ("CC(=O)c1cccc(NS(=O)(=O)c2ccc3c(c2)C2NCC[C@H]2C(c2ccc(C(=O)C(C)C)cc2)N3)c1 (some centres unmarked)", "EU-1", ">", 10),
    ("CC(=O)c1ccc(NS(=O)(=O)c2ccc3c(c2)[C@H]2OCC[C@H]2C(c2cccc(C(C)=O)c2)N3)cc1 (stereo in doubt)", "EU-1", "=", 1.8),
    ("CC(C)C(=O)c1cccc(C2Nc3ccc(S(=O)(=O)Nc4cccc(C(C)O)c4)cc3C3OCC[C@@H]23)c1 (some centres unmarked)", "EU-1", ">", 10),
    ("CC(C)C(=O)c1cccc(C2CC(=O)c3cc(S(=O)(=O)Nc4ccc5c(c4)CCO5)ccc3N2)c1 (centres unmarked)", "EU-1", "=", 0.23),
    ("CC(C)C(=O)c1ccc(C2Nc3ccc(S(=O)(=O)N[C@H]4CC[C@H](C)CC4)cc3[C@H]3OCC[C@@H]23)cc1 (some centres unmarked)", "EU-1", "=", 3.67),
    ("Cc1ccc(NS(=O)(=O)c2ccc3c(c2)C2NCC[C@H]2C(c2c[nH]c4ccccc24)N3)cc1C (some centres unmarked)", "EU-1", "=", 4.81),
    ("CC(=O)c1cccc(C2CC(=O)c3cc(S(=O)(=O)Nc4ccc5c(c4)OCO5)ccc3N2)c1 (centres unmarked)", "EU-1", "=", 1.16),
    ("Cc1ccc(NS(=O)(=O)c2ccc3c(c2)C2CCC[C@H]2[C@H](c2ccc(C(=O)C(C)C)cc2)N3)cc1C (some centres unmarked)", "EU-1", "=", 6.97),
    ("Cc1ccc(NS(=O)(=O)c2ccc3c(c2)C2OCC[C@H]2C(c2ccc(C(=O)C(C)C)cc2)N3)cc1C (some centres unmarked)", "EU-1", "=", 2.08),
    ("Cc1ccc(NS(=O)(=O)c2ccc3c(c2)C2OCC[C@H]2[C@@H](c2c[nH]c4ccccc24)N3)cc1C (some centres unmarked)", "EU-1", "=", 9.2),
    ("Cc1ccc(NS(=O)(=O)c2ccc3c(c2)[C@H]2OCC[C@H]2C(c2ccc(B4OCC(C)(C)CO4)cc2)N3)cc1C (some centres unmarked)", "EU-1", "=", 8.69),
]
